# maps each entry to its pIC50
Tested on: human gel filtered platelets (GFP)
Test Summary: Inhibition of ADP-induced blood platelet aggregation in gel filtered platelets (Born-type optical aggregometer)
Assay type: cell-based
Test Context: 5 min; human GFP approx. 300,000 platelets/µl; human fibrinogen 0.5mg/ml, Ca2+ 1mM, Mg2+ 0.5mM; compounds incubated 5 minutes at 37°C; ADP 1 x 10⁻⁵M; concentration producing 50% inhibition of platelet aggregation; read-out: IC₅₀
Where a name gives a salt, the structure may show the parent alone.
pIC50 field: float, defined as -log10 of concentration (mol/L).

Solved entries:
[[record]]
compound = "N=C(NCC(F)(F)F)c1ccc(N2CCN(C3CCN(CC(=O)O)CC3)CC2)cc1 [Example 18, trifluoroacetate salt]"
data_value = 6.50

[[record]]
compound = "Cc1cc(C(=N)N)ccc1N1CCN(C2CCN(CC(=O)O)CC2)CC1 [Example 25, trifluoroacetate salt]"
data_value = 6.24

[[record]]
compound = "N=C(N)c1ccc(N2CCN(C3CCN(CC(=O)O)CC3)CC2)nc1 [Example 41, trifluoroacetate salt]"
data_value = 7.52

[[record]]
compound = "C[C@@H]1CN(CC(=O)O)CC[C@@H]1N1CCN(c2ccc(C(=N)N)cc2)CC1 (relative stereo) [Example 30, trihydrochloride salt]"
data_value = 7.64

[[record]]
compound = "NC(=NO)c1ccc(N2CCN(C3CCN(CC(=O)O)CC3)CC2)cc1 [Example 17, trifluoroacetate]"
data_value = 5.25

[[record]]
compound = "CC(C(=O)O)N1CCC(N2CCN(c3ccc(C(=N)N)cc3)CC2)CC1 (stereo not shown)"
data_value = 6.75


Lab note: C[N@+]1(CC(=O)O)CC[C@H](N2CCN(c3ccc(C(=N)N)cc3)CC2)CC1 [Example 16a, trifluoroacetate salt] gave pIC50 of 7.36

* * *

Entries and their measured log10 of IC50 follow.
System: human gel filtered platelets (GFP)
Test Summary: Inhibition of ADP-induced blood platelet aggregation in gel filtered platelets (Born-type optical aggregometer)
Assay type: cell-based
Test Context: 5 min; human GFP approx. 300,000 platelets/µl; human fibrinogen 0.5mg/ml, Ca2+ 1mM, Mg2+ 0.5mM; compounds incubated 5 minutes at 37°C; ADP 1 x 10⁻⁵M; concentration producing 50% inhibition of platelet aggregation; read-out: IC₅₀
Counter-ions that a name gives are not always drawn.
// stored as log10 of IC50 expressed in nM

// solved cases for log10 of IC50 follow
[[record]]
compound = "N=C(N)c1ccc(C2CCN(C3CCN(CC(=O)O)CC3)CC2)cc1 [Example 22, trifluoroacetate salt]"
endpoint = "log10 of IC50"
data_value = 1.85

[[record]]
compound = "N=C(N)c1ccc(N2CCN(C3CCN(CC(=O)O)CC3)CC2)cn1 [Example 19, trifluoroacetate salt]"
endpoint = "log10 of IC50"
data_value = 1.88


Entry under test: N=C(N)c1ccc(N2CCN(C3CCN(CC(=O)O)CC3)CC2)c(Br)c1 [Example 24, trifluoroacetate salt] . Its log10 of IC50 was 2.53

What the record says about C[N@+]1(CC(=O)O)CC[C@H](C2CCN(c3ccc(C(=N)N)cc3)CC2)CC1 [Example 21, trifluoroacetate salt] : log10 of IC50 is 1.61

Record summary for COC(=O)NC(=N)c1ccc(N2CCN(C3CCN(CC(=O)O)CC3)CC2)cc1 [Example 34, trifluoroacetate salt] : reported log10 of IC50 = 3.20

Form: compound = CCOC(=O)CN1CCC(N2CCN(c3ccc(C(=N)N)cc3)CC2)CC1 [Example 23, trifluoroacetate salt] ; log10 of IC50 = 4.21

Record summary for CC1CN(c2ccc(C(=N)N)cc2)CCN1C1CCN(CC(=O)O)CC1 (stereo not shown) [Example 20, trifluoroacetate salt] : reported log10 of IC50 = 1.85
